Molecular target: Bromodomain-containing protein 2 (Homo sapiens)
Sequence (P25440 whole entry): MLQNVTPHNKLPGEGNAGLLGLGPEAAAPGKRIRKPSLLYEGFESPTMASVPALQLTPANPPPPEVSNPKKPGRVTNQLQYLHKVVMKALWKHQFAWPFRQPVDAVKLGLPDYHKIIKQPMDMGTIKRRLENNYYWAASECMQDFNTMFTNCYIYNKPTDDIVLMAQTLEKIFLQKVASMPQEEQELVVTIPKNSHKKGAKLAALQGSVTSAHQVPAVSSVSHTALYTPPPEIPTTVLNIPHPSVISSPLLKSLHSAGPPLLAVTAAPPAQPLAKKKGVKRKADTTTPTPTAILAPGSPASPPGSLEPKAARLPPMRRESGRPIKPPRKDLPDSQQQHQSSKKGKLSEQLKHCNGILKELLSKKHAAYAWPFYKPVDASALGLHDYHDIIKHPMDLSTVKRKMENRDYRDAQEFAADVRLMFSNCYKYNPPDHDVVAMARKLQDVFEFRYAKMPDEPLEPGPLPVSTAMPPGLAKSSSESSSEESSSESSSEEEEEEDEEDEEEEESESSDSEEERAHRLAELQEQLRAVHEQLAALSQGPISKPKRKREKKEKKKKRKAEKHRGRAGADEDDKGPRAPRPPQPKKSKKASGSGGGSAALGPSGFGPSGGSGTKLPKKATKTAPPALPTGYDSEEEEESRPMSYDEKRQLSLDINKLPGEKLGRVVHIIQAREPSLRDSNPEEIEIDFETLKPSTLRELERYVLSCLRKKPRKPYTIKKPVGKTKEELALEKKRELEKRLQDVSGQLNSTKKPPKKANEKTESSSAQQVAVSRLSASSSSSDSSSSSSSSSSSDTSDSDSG
Assay: Inhibition of recombinant BRD2 BD1 (unknown origin) incubated for 120 mins by TR-FRET assay
readout.type: pIC50
Please note pIC50 is a logarithmic value: minus log10 of concentration in mol/L. Answer with that number alone.

If you can, please state the reported pIC50 value of "COc1cc2c(cc1-c1c(C)noc1C)[nH]c1nc(C)nc(NCCCCCCC(=O)NO)c12" . 5.70

If you can, please state the reported pIC50 value of "COc1cc2c(cc1-c1c(C)noc1C)[nH]c1ncnc(NCCCCCCC(=O)NO)c12" . 6.76

###

Consider the following compounds; for each one, report its IC50.
Molecular target: Histone deacetylase 3 (Homo sapiens, UniProt O15379)
Sequence (O15379 whole entry): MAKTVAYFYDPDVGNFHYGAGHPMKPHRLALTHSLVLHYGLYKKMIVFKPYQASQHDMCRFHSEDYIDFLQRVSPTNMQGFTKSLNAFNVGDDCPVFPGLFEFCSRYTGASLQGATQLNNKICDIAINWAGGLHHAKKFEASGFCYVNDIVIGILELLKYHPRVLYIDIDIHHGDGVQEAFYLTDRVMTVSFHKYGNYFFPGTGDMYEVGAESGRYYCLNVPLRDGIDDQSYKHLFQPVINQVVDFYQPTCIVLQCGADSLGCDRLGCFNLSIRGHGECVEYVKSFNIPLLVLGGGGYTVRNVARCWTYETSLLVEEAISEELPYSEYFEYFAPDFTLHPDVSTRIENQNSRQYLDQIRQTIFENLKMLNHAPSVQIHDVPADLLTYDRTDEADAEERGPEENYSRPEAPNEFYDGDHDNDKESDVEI
Experiment: Inhibition of His-tagged recombinant human HDAC3 expressed in baculovirus infected insect cells using Ac-Leu-Gly-Lys(Ac)-AMC as substrate incubated for 30 mins by fluorescence based assay
Design: species or system Insect cell
Write the answer as a number in nM, unit excluded.

If you can, please state the reported IC50 value of "COc1cc2c(cc1-c1c(C)noc1C)[nH]c1nc(C)nc(NCCCCCCC(=O)NO)c12" . 213

If you can, please state the reported IC50 value of "COc1cc2c(cc1-c1c(C)noc1C)[nH]c1ncnc(NCCCCCCC(=O)NO)c12" . 161

###

Target: Bromodomain testis-specific protein (Homo sapiens, UniProt Q58F21)
Test: Inhibition of recombinant BRDT BD1 (unknown origin) incubated for 120 mins by TR-FRET assay
readout.type: pIC50
Please note pIC50 is a logarithmic value: minus log10 of concentration in mol/L. Answer with that number alone.

Could you share what pIC50 was measured for "COc1cc2c(cc1-c1c(C)noc1C)[nH]c1ncnc(NCCCCCCC(=O)NO)c12" , tested on Bromodomain testis-specific protein (Homo sapiens, UniProt Q58F21)? 6.66

Could you share what pIC50 was measured for "COc1cc2c(cc1-c1c(C)noc1C)[nH]c1nc(C)nc(NCCCCCCC(=O)NO)c12" , tested on Bromodomain testis-specific protein (Homo sapiens, UniProt Q58F21)? 5.96

###

Assay: Metabolic stability in ICR mouse liver microsome assessed as half life
Type: ADME
Conditions: liver microsomes
readout.type: half-life (min)
Write the answer as a number in min, unit excluded.

If you can, please state the reported half-life value of "COc1cc2c(cc1-c1c(C)noc1C)[nH]c1nc(C)nc(NCCCCCCC(=O)NO)c12" . 19.3

If you can, please state the reported half-life value of "COc1cc2c(cc1-c1c(C)noc1C)[nH]c1ncnc(NCCCCCCC(=O)NO)c12" . 53.3

###

Tested on: MDA-MB-231
Assay: Induction of apoptosis in human MDA-MB-231 cells assessed as late apoptotic cells at 10 uM incubated for 48 hrs by Annexin V-FITC/PI staining based flow cytometry relative to control
Format: functional
readout.type: Activity (%)
Write the answer as a number in %, unit excluded.

If you can, please state the reported Activity value of "COc1cc2c(cc1-c1c(C)noc1C)[nH]c1ncnc(NCCCCCCC(=O)NO)c12" . 69.85

If you can, please state the reported Activity value of "COc1cc2c(cc1-c1c(C)noc1C)[nH]c1nc(C)nc(Nc3cc(C4CC4)nn3C)c12" . 16.93

If you can, please state the reported Activity value of "O=C(CCCCCCC(=O)Nc1ccccc1)NO" . 27.19

If you can, please state the reported Activity value of "COc1cc2c(cc1-c1c(C)noc1C)[nH]c1nc(C)nc(NCCCCCCC(=O)NO)c12" . 49.38
